molecular target: CB1 (mutant) (Homo sapiens); assay: R-SAT functional receptor assay, CB1 (mutant, truncated after amino acid 417); format: cell-based; conditions: Appendix A; R-SAT CB1; receptor form (mutant or wild-type) not stated; read-out: pIC50 (converted)
Decide using IC50 alone. Strictly below 20 nM: Y. Equal to or above 20 nM: N.

>>> print(df.to_string())
                                   compound  label_value
0  CCN(CCNC(=O)c1ccc2c(c1)N=C(N1CCCCC1)c1ccccc1S2)c1ccccc1 [drawing 913]            Y
1  CCOCCNC(=O)c1ccc2c(c1)N=C(c1ccc(Br)cc1)c1ccccc1S2 [drawing 1143]            N
2  O=C(NC1CCC(F)(F)CC1)c1ccc2c(c1)N=C(c1cccc(F)c1)c1ccccc1S2 [drawing 659]            Y
3  CC(CNC(=O)c1ccc2c(c1)N=C(c1ccccc1F)c1ccccc1S2)c1ccccc1 (centres unmarked) [drawing 909]            Y
4  O=C(NCCc1ccccn1)c1ccc2c(c1)N=C(c1ccc(Br)cc1)c1ccccc1S2 [drawing 734]            N
5  CC(C)CNC(=O)c1ccc2c(c1)N=C(c1ccc(Cl)cc1F)c1ccccc1S2 [drawing 613]            Y
6  O=C(NCCc1ccncc1)c1ccc2c(c1)N=C(c1ccccn1)c1ccccc1S2            N
7  O=C(NCc1cccs1)c1ccc2c(c1)N=C(c1cccc(F)c1)c1ccccc1S2 [drawing 595]            Y

====

# Emax per entry
target: CB1 (mutant) (Homo sapiens, UniProt P21554); experiment: R-SAT functional receptor assay, CB1 (mutant, truncated after amino acid 417); format: cell-based; details: Appendix A; R-SAT CB1; receptor form not stated; relative to SR141716 (100%); read-out: % Inhibition
Sequence (P21554 1-417, change not shown): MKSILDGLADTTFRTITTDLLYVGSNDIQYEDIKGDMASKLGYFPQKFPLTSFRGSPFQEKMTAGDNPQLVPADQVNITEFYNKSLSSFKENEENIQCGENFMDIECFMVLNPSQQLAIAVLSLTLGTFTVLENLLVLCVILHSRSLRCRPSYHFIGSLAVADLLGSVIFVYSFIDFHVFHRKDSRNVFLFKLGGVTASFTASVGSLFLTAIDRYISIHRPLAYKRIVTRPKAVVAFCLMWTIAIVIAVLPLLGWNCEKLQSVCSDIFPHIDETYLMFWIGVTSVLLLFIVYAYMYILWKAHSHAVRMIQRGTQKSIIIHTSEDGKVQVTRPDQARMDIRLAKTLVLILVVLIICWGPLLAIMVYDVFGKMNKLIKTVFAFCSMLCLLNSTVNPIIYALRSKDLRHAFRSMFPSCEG
MEASURED_METRIC: Emax (%)

In [3]: df
Out[3]:
                                    molecule  measured_metric  value_measured
 0  O=C(NCCc1cccc(Cl)c1)c1ccc2c(c1)N=C(c1cccc(Cl)c1)c1ccccc1S2 [drawing 779]             Emax             107
 1  Clc1ccc(C2=Nc3cc(-c4ncc[nH]4)ccc3Sc3ccccc32)cc1 [drawing 846]             Emax             109
 2  CCOC(=O)c1ccc(C2=Nc3cc(C(=O)NCc4ccccn4)ccc3Sc3ccccc32)cc1 [drawing 874]             Emax             100
 3  O=C(NCc1ccccc1Cl)c1ccc2c(c1)N=C(c1ccc(F)cc1)c1ccccc1S2 [drawing 1121]             Emax              89
 4  CC(C)CCNC(=O)c1ccc2c(c1)N=C(c1ccccc1F)c1ccccc1S2 [drawing 1067]             Emax             117
 5  O=C(NC1CCC(F)(F)CC1)c1ccc2c(c1)N=C(c1cccc(F)c1)c1ccccc1S2 [drawing 659]             Emax              77
 6  O=C(NCCc1cccc(Cl)c1)c1ccc2c(c1)N=C(C1CCCCC1)c1ccccc1S2 [drawing 1001]             Emax             102
 7  Cc1ccsc1C1=Nc2cc(C(=O)NC3CCC(F)(F)CC3)ccc2Sc2ccccc21 [drawing 620]             Emax              76
 8  O=C(Cc1ccccc1)NNC(=O)c1ccc2c(c1)N=C(N1CCCCC1)c1ccccc1S2             Emax              69
 9  CCCCNC(=O)c1ccc2c(c1)N=C(c1ccc(Cl)s1)c1cc(Cl)ccc1S2 [drawing 995]             Emax             107
10  COc1ccccc1C1=Nc2cc(C(=O)NC3CCCCC3)ccc2Sc2ccccc21             Emax              72
11  CCCC1=NC2=C(CCC(C(=O)NCCN(CC)CCNc3cc(Cl)ccc3C)=C2)Sc2ccccc21             Emax             113
12  COCCNC(=O)c1ccc2c(c1)N=C(c1ccc(Cl)cc1Cl)c1ccccc1S2             Emax              69
13  CCCC1=Nc2cc(C(=O)NCc3ccco3)ccc2Sc2ccccc21             Emax             103
14  O=C(NCCc1cccc(Cl)c1)c1ccc2c(c1)N=C(c1ccccc1F)c1ccccc1S2 [drawing 736]             Emax              91
15  O=C(NC1CCCCC1)c1ccc2c(c1)N=C(c1cccc(Cl)c1)c1ccccc1S2 [drawing 843]             Emax              99
16  O=C(NC1CCCC1)c1ccc2c(c1)N=C(c1ccc(Cl)cc1)c1ccccc1S2 [drawing 782]             Emax             105
17  Cc1ccc(CNC(=O)c2ccc3c(c2)N=C(c2cccc(Cl)c2)c2ccccc2S3)o1 [drawing 623]             Emax              74
18  O=C(NCCCc1ccccc1)c1ccc2c(c1)N=C(N1CCCCC1)c1ccccc1S2 [drawing 903]             Emax             104
19  CCCC1=Nc2cc(C(=O)NCCCN(CC)CC)ccc2Sc2ccccc21             Emax             125
20  O=C(NN1CCCC1)c1ccc2c(c1)N=C(c1cccc(F)c1)c1ccccc1S2             Emax              67
21  CCOC(=O)N1CCC(NC(=O)c2ccc3c(c2)N=C(c2ccc(Cl)cc2)c2ccccc2S3)CC1 [drawing 1101]             Emax             109
22  N#Cc1ccc(C2=Nc3cc(C(=O)NCc4ccccn4)ccc3Sc3ccccc32)cc1             Emax              99
23  O=C(NN1CCCCC1)c1ccc2c(c1)N=C(c1cccc(Br)c1)c1ccccc1S2 [drawing 723]             Emax              92
24  CCONC(=O)c1ccc2c(c1)N=C(c1ccc(Cl)cc1F)c1ccccc1S2             Emax              87
25  C[C@@H]1CCC[C@H](C)N1NC(=O)c1ccc2c(c1)N=C(c1ccc(Cl)c(Cl)c1)c1ccccc1S2 [drawing 739]             Emax             114
26  O=C(NC1CCCC1)c1ccc2c(c1)N=C(c1ccc(Cl)s1)c1ccccc1S2 [drawing 1139]             Emax              86
27  CC(C)CCNC(=O)c1ccc2c(c1)N=C(c1cccc(F)c1)c1ccccc1S2 [drawing 671]             Emax             100
28  O=C(NCc1ccccc1Cl)c1ccc2c(c1)N=C(c1cccc(Cl)c1)c1ccccc1S2 [drawing 955]             Emax             102
29  CCCC1=Nc2cc(C(=O)NCCN(C)C3CCCCC3)ccc2Sc2ccccc21             Emax             123
30  CCONC(=O)c1ccc2c(c1)N=C(c1ccccc1F)c1ccccc1S2             Emax              73
31  O=C(NCc1ccc(F)cc1)c1ccc2c(c1)N=C(c1ccc(Cl)cc1)c1ccccc1[S+]2[O-] (centres unmarked) [drawing 1125]             Emax              98
32  O=C(NN1CCOCC1)c1ccc2c(c1)N=C(C1CCCCC1)c1ccccc1S2             Emax              56
33  O=C(NN1CCCCC1)c1ccc2c(c1)N=C(c1ccc(Br)cc1)c1ccccc1S2 [drawing 993]             Emax              92
34  CCCCNC(=O)c1ccc2c(c1)N=C(c1ccc(Cl)cc1)c1ccc(Cl)cc1S2 [drawing 766]             Emax              90
